Test system: Fusarium oxysporum
Experiment: Antifungal activity against Fusarium oxysporum at 100 ug/mL
Type: functional
Settings: read-out: IZ
quantity_measured: zone of inhibition at 100 µg/mL (mm)

molecule | quantity_measured | result_value
O=C(Cn1ncc2cc([N+](=O)[O-])ccc21)NN1C(=O)CSC1c1ccccc1Br (stereo not drawn) | zone of inhibition at 100 µg/mL | 22.6
O=C(Cn1ncc2cc([N+](=O)[O-])ccc21)N/N=C/c1ccccc1Br | zone of inhibition at 100 µg/mL | 19.8
NNC(=O)Cn1ncc2cc([N+](=O)[O-])ccc21 | zone of inhibition at 100 µg/mL | 10.5
Cc1ccc(C2SCC(=O)N2NC(=O)Cn2ncc3cc([N+](=O)[O-])ccc32)cc1 (stereo not drawn) | zone of inhibition at 100 µg/mL | 15.4
CN(C)c1ccc(C2SCC(=O)N2NC(=O)Cn2ncc3cc([N+](=O)[O-])ccc32)cc1 (stereo not drawn) | zone of inhibition at 100 µg/mL | 16.8
O=C(Cn1ncc2cc([N+](=O)[O-])ccc21)N/N=C/c1cccc([N+](=O)[O-])c1 | zone of inhibition at 100 µg/mL | 25.4
O=C(Cn1ncc2cc([N+](=O)[O-])ccc21)N/N=C/c1ccc(Cl)cc1 | zone of inhibition at 100 µg/mL | 22.9
COC1=CC(=O)C[C@@H](C)[C@]12Oc1c(Cl)c(OC)cc(OC)c1C2=O | zone of inhibition at 100 µg/mL | 32
COc1ccccc1C1SCC(=O)N1NC(=O)Cn1ncc2cc([N+](=O)[O-])ccc21 (stereo not drawn) | zone of inhibition at 100 µg/mL | 18
CN(C)c1ccc(/C=N/NC(=O)Cn2ncc3cc([N+](=O)[O-])ccc32)cc1 | zone of inhibition at 100 µg/mL | 13.8
CCOC(=O)Cn1ncc2cc([N+](=O)[O-])ccc21 | zone of inhibition at 100 µg/mL | 9
COc1ccc(/C=N/NC(=O)Cn2ncc3cc([N+](=O)[O-])ccc32)cc1 | zone of inhibition at 100 µg/mL | 16.2
O=C(Cn1ncc2cc([N+](=O)[O-])ccc21)N/N=C/c1ccccc1Cl | zone of inhibition at 100 µg/mL | 22
O=C(Cn1ncc2cc([N+](=O)[O-])ccc21)N/N=C/c1cccc(Br)c1 | zone of inhibition at 100 µg/mL | 20.7
O=C(Cn1ncc2cc([N+](=O)[O-])ccc21)NN1C(=O)CSC1c1cccc(Br)c1 (stereo not drawn) | zone of inhibition at 100 µg/mL | 23.7
COc1ccc(C2SCC(=O)N2NC(=O)Cn2ncc3cc([N+](=O)[O-])ccc32)cc1 (stereo not drawn) | zone of inhibition at 100 µg/mL | 18.9
O=C(Cn1ncc2cc([N+](=O)[O-])ccc21)N/N=C/c1ccccc1[N+](=O)[O-] | zone of inhibition at 100 µg/mL | 24.2
O=C(Cn1ncc2cc([N+](=O)[O-])ccc21)NN1C(=O)CSC1c1ccccc1 (stereo not drawn) | zone of inhibition at 100 µg/mL | 20
